Origin of measurements: patent EP1803452A1

procedure text: Metabolic stability test in liver S9
Assay type: in vitro ADME
test settings: pH 7.4; unchanged form after 10 minutes at 37°C, human liver S9 2 mg protein/mL, LC/MS; read-out: Remaining rate in human liver S9 (%/10min)

{"chemical structure": "COC(=O)c1cc(C)c(OC(=O)CCCc2ccc(NC(=O)c3ccccc3-c3ccc(C(F)(F)F)cc3)c(C(=O)N(C)C)c2)c(C)c1", "remaining at 10 min / %": 21}
{"chemical structure": "COC(=O)c1cc(OC)c(OC(=O)CCCc2ccc(NC(=O)c3ccc(C)nc3-c3ccc(C(F)(F)F)cc3)c(C(=O)N(C)C)c2)c(C(=O)OC)c1", "remaining at 10 min / %": 5}
{"chemical structure": "COC(=O)c1ccc(OC(=O)CCc2ccc(NC(=O)c3ccccc3-c3ccc(C(F)(F)F)cc3)c(C(=O)N(C)C)c2)cc1", "remaining at 10 min / %": 0}
{"chemical structure": "CN(C)C(=O)c1cc(CCCC(=O)Oc2ccc(C(=O)OCCCO)cc2)ccc1NC(=O)c1ccccc1-c1ccc(C(F)(F)F)cc1", "remaining at 10 min / %": 0}
{"chemical structure": "COC(=O)c1ccc(OC(=O)CCCc2ccc(NC(=O)c3ccccc3-c3ccc(C(F)(F)F)cc3)c(C(=O)N(C)C)c2)cc1Cl", "remaining at 10 min / %": 0}
{"chemical structure": "CCOC(=O)c1cc(C)c(OC(=O)CCCc2ccc(NC(=O)c3ccc(C)nc3-c3ccc(C(F)(F)F)cc3)c(C(=O)N(C)C)c2)c(C(=O)OC)c1", "remaining at 10 min / %": 13}
{"chemical structure": "CN(C)C(=O)c1cc(CCCC(=O)Oc2ccc(C(=O)OCC(=O)OCc3ccccc3)cc2)ccc1NC(=O)c1ccccc1-c1ccc(C(F)(F)F)cc1", "remaining at 10 min / %": 10}
{"chemical structure": "CC(C)OC(=O)c1ccc(OC(=O)CCCc2ccc(NC(=O)c3cccnc3-c3ccc(C(F)(F)F)cc3)c(C(=O)N(C)C)c2)cc1", "remaining at 10 min / %": 0}
{"chemical structure": "COc1cccc(COC(=O)c2ccc(OC(=O)CCCc3ccc(NC(=O)c4ccccc4-c4ccc(C(F)(F)F)cc4)c(C(=O)N(C)C)c3)cc2)c1", "remaining at 10 min / %": 13}
{"chemical structure": "CCc1cc(C(=O)OC)cc(F)c1OC(=O)CCCc1ccc(NC(=O)c2ccc(C)nc2-c2ccc(C(F)(F)F)cc2)c(C(=O)N(C)C)c1", "remaining at 10 min / %": 5}
{"chemical structure": "CCOC(=O)c1cc(C)c(OC(=O)CCCc2ccc(NC(=O)c3ccc(C)nc3-c3ccc(C(F)(F)F)cc3)c(C(=O)N(C)C)c2)c(Cl)c1", "remaining at 10 min / %": 27}
{"chemical structure": "CN(C)C(=O)c1cc(CCCC(=O)Oc2ccc(C(=O)OCc3cccc(Cl)c3)cc2)ccc1NC(=O)c1ccccc1-c1ccc(C(F)(F)F)cc1", "remaining at 10 min / %": 11}
